The measurements presented in this section are drawn from PubChem BioAssay (NCATS).

# ASSAY_SUMMARY: qHTS Assay for Lipid Storage Modulators (AID 1519); also: % is scaled to controls: 0 for no effect and ±100 for the full control effect
# ASSAY_CONTEXT: Drosophila S3 cells, BODIPY lipid droplet/cell ratio, laser cytometry; at 57.5 µM (top of the series); cells loaded with oleic acid
Counter-ions that a name gives are not always drawn. Inconclusive results are not listed. Peptide text beside a SMILES is read from it. * marks the point of attachment. Tfa = O=C(C(F)(F)F)*
Please go through the items and note down their activity change, negative = inhibition.
Report as a plain number; the unit % is understood.

Lookup result for Nc1ccn([C@@H]2O[C@H](CO)[C@@H](OP(=O)(O)O)[C@H]2O)c(=O)n1 ; measured activity change, negative = inhibition: 4.4

Form: molecule = O=c1ccn([C@H]2C[C@H](O)[C@@H](CO)O2)c(=O)[nH]1 ; activity change, negative = inhibition = 5.4

Value of activity change, negative = inhibition reported for the molecule COc1ccc(-c2oc3ccccc3c(=O)c2O)cc1OC is 7.98

// recorded activity change, negative = inhibition for N=c1ccn2c(n1)O[C@@H]1[C@H](O)[C@H](CO)O[C@@H]12 : -7.95

activity change, negative = inhibition for C=C[C@]1(C)CC(=O)[C@@]2(O)[C@@]3(C)C(O)CCC(C)(C)C3C(O)C(OC(C)=O)[C@@]2(C)O1 (stereo not given in full) is 3.86

Form field activity change, negative = inhibition, entry Fc1ccc([C@H]2CCNCC2COc2ccc3c(c2)OCO3)cc1 (stereo not given in full) : 12.8

// activity change, negative = inhibition lookup, molecule = CC(C)C1=CC2=CC[C@@H]3[C@](C)(CO)CCC[C@]3(C)C2CC1 (stereo not given in full) , result: 1.89

CC(C)C(NC(=O)C(Cc1ccc(O)cc1)NC(=O)C(NC(=O)C(F)(F)F)C(C)C)C(=O)O (stereo not drawn) (Tfa-Val-Tyr-Val-OH; configuration not given here) yielded activity change, negative = inhibition of 4.31

In plain terms, Nc1nc(Cl)c2ncn(C3OC(CO)C(O)C3O)c2n1 (stereo not given) has a documented activity change, negative = inhibition of 1.75

Record CC(=O)OCC(=O)C1CCC2C3CC=C4CC(O)CC[C@@]4(C)C3CC[C@]12C (stereo not given in full) , field activity change, negative = inhibition: 8.84

Entry CO[C@]1(NC(=O)C(C(=O)O)c2ccc(O)cc2)C(=O)N2C(C(=O)O)=C(CSc3nnnn3C)COC21 (stereo not given in full) — recorded activity change, negative = inhibition = 9.58

Entry COC(=O)c1cc(=O)c(O)c2c(O)c(O)ccc2c1 , activity change, negative = inhibition reported as -1

response.value for COC(=O)CCCC[C@@H]1SC[C@@H]2NC(=O)N[C@@H]21 (field: activity change, negative = inhibition) = 0.0624

The molecule O=c1cc(-c2ccc(O)c(O)c2)oc2ccccc12 showed activity change, negative = inhibition equal to 2.38

// field: activity change, negative = inhibition; key: Cc1cc(=O)c2c(O)cc(O)c(C)c2o1 ; value = 14

// activity change, negative = inhibition value for CC(=O)OC1CC2C(C)(C)C(O)CC[C@@]2(C)C2CC[C@@]3(C)C(c4ccoc4)OC(=O)C4OC43[C@]12C (stereo not given in full) : -20.5

Given item CN1CCCC1CCO[C@@](C)(c1ccccc1)c1ccc(Cl)cc1 (stereo not given in full) , the value recorded as its activity change, negative = inhibition is -9.48

Input CC(=O)[C@]1(O)CCC2C3CCC4=CC(=O)CC[C@@]4(C)C3CC[C@]21C (stereo not given in full) . Output activity change, negative = inhibition: 5.01

Recorded result, CC1C(=O)CCC2[C@]1(C)CCC1[C@]2(C)CC[C@@]2(C)C3CC(C)(C)CC[C@]3(C)CC[C@@]12C (stereo not given in full) , activity change, negative = inhibition: 2.51

GET /value?item= O=c1c(O)c(-c2ccccc2)oc2cccc(O)c12 &field=activity change, negative = inhibition returns 9.45
